Biological target: T1, human CD73 on Calu6 cells (human, UniProt P21589 27-549)
T1 sequence (looked up): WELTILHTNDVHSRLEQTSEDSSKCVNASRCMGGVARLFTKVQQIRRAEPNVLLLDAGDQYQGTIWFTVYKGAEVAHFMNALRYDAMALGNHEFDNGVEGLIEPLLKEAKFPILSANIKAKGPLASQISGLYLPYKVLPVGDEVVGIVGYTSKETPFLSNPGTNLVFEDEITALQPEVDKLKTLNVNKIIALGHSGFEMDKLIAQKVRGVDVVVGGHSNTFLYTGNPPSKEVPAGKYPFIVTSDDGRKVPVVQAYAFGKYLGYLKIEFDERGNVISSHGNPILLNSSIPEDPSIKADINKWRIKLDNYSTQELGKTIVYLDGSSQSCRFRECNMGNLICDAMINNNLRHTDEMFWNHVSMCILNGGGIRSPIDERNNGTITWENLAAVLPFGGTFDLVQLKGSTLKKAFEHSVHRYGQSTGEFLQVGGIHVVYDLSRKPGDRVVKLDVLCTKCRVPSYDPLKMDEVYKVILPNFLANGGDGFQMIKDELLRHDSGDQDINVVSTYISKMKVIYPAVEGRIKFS
Experiment: cell-based or functional assay
measured endpoint: CD73 endocytosis ratio %, 30 minutes (%)
Number in %, nothing else.

Example entries and their recorded answers appear below.
CD73 antibody 7E10 (antibody, V domains shown, Mouse variable regions on human IgG heavy chain constant region and human kappa constant region (chimeric IgG); also called Clone 7E10) VH: QVQFQQSGAELVRPGASVKLSCKASGYIFSSYWIQWVKQRPGQGLEWIGAIYPGDGDTRYTQKFKDKATLTADKSSSTAYMQLSSLASEDSAVYYCAGFASWGQGTLVTVSA VL: DIQMTQSPSSLSASLGERVSLTCRASQDIGSSLNWLQQEPNGTIKRLIYATSSLDSGVPKRFSGSRSGSDYSLTISSLESEDFADYYCLQYASSPYTFGGGTKLEIK = 9.9
CD73 antibody 8A8 (antibody, V domains shown, Mouse variable regions on human IgG heavy chain constant region and human kappa constant region (chimeric IgG); also called Clone 8A8) VH: QVQFQQSGAELARPGASVKLSCKASGYIFTSYWIQWIKQRPGQGLEWIGAIYPGDGDTRYTQKFKGKATLTADKSSSTAYMQLRSLASEDSAVYYCAGFASWGQGTLLTVSA VL: DIQMTQSPSSLSASLGERVSLTCRASQDIGESLIWLQQEPDGTIKRLIYATSSLDSGVPKRFSGSRSGSDYSLSISSLESDDFVDYYCLQYSSSPYTFGGGTKLEIK = 21.2
CD73 antibody 6G8 (chimeric) (antibody, V domains shown, Mouse variable regions on human IgG heavy chain constant region and human kappa constant region (chimeric IgG); also called Clone 6G8; 6G8 Chimera) VH: QVTLKESGPGILKPSQTLSLTCSFSGFSLNTSGMGVGWIRQPSGKGLEWLAHIWWDDDKYYNPSLKSQLTISKDTSRNQVFLRIASVDTADTATYYCARRERWAWFAYWGQGTLVTVSA VL: DIVMTQSQKFMSASVGDRVSVTCKASQNVFTNVAWYQQKPGQSPKVLIYSASYRYSGVPDRFTGSGSGTDFTLTINNVQSEDLAEYFCQQYNSYPTFGSGTKLEIK = 17.1
CD73 antibody 2D4 (antibody, V domains shown, also called Clone 2D4) VH: EVKLVESGGGLVQPGGSLKLSCATSGFTFSDYYMYWVRQTPEKRLEWVAYISNVGGSTYYPDTVKGRFTISRDNAKNTLYLQMSRLKSEDTAIYYCARGDGYYGYYFDVWGAGTTVTVSS VL: QIVLTQSPAIMSASPGEKVTMTCSASSSVSYMHWYQQKSGTSPKRWIYDTSKLASGVPARFSGSGSGTSYSLTISSMEAEDAATYYCQQWSSNPYTFGGGTKLEIK = 19.1

Moving on to another binder below.
Lab note: measured CD73 endocytosis ratio %, 30 minutes of CD73 antibody 2H2 (antibody, V domains shown, also called Clone 2H2) VH: EVKLVESGGGLVQPGGSLKLSCATSGFTFSDYYMYWVRQTPEKRLEWVAYISNVGGSTYYPDTVKGRFTISRDNAKNTLYLQMSRLKSEDTAMYYCARGDGYYGYYFDVWGAGTTVTVSS VL: ENVLTQSPAIMSASPGEKVTMTCSASSSVSYMHWYQQKSGTSPKRWIYDTSKLASGVPTRFSGSGSGTSFSLTISSMEAEDAATYYCQQWSSNPYTFGGGTKLEIK was 22.4
